Cited source for all entries: ChEMBL document CHEMBL1201862

Record form. Attribute: GI50. Fill in for each entry.
# System: NCI-H522
# method description: NCI tumour cell line growth inhibition, 48 h
Activity calls are given as the source filed them. No stated cut-off is given here; in the data, active = GI50 up to about 1.1 µM and inactive = higher.

The reported value for `O=C(CSCC(=O)N/N=C\c1ccc(F)cc1F)N/N=C\c1ccc(F)cc1F` in terms of GI50 is > 100 µM (inactive)

The reported value for `COc1ccc(OC)c(NC(=O)C2=C(C)NC(C)=C(C(=O)Nc3cc(OC)ccc3OC)C2c2ccco2)c1` in terms of GI50 is > 100 µM (inactive)

The reported value for CC(C)C(CCOS(=O)(=O)O)CCC(C)[C@H]1[C@@H](O)C(O)C2[C@]3(O)C[C@@H](O)C4(O)C[C@@H](O)CC[C@]4(C)C3CC[C@@]21C (some centres undefined) in terms of GI50 is > 100 µM (inactive)

The reported value for O=C1OC2C(O)COC2(O)C1(O)C(C[N+](=O)[O-])c1ccc(Cl)cc1 (centres undefined) in terms of GI50 is 9.27 µM (inactive)
